Assay: Drug concentration in total heart in Wistar Han rat at 1 to 2 mg/kg, iv infused for 10 to 20 hrs by LC-MS/MS analysis
Conditions: in vivo
measured parameter: Ct (ng/mL)

1) CN(C)C[C@@H](OC(=O)N1Cc2c(NC(=O)C3(C(F)(F)F)CC3)n[nH]c2C1(C)C)c1ccccc1 : 190
2) O=C(O)c1c[nH]c2cc(Cl)c(-c3ccc(CC(=O)N4CCOCC4)cc3)cc12 : 21
3) CC(C)(O)CS(=O)(=O)c1ccc2c(c1)nc(C(C)(C)C)n2CC1CCOCC1 : 91
4) CC(C)C[C@H](Nc1ccc(C(=O)NCCC(=O)O)cn1)c1ccc(-c2ccc(C(F)(F)F)cn2)cc1 : 45

a = O=C(NC1CCCC1)C1CCN(c2nc3cc(Cl)ccc3o2)CC1
b = CO[C@@H]1C[C@H](C(=O)Nc2ccc(-n3cc(Cl)ccc3=O)cc2F)N(C(=O)Nc2ccc(Cl)cc2)C1
Q) Endpoint returns the identifier whose Ct is numerically larger, either a or b . Answer by stating the label of the chosen item.
A) b

* * *

Assay: Drug concentration in total liver in Wistar Han rat at 1 to 2 mg/kg, iv infused for 10 to 20 hrs by LC-MS/MS analysis
Conditions: in vivo
measured parameter: Ct (ng/mL)

a = CCC[C@H](Oc1cc(C)c(-n2cc(C(F)(F)F)cn2)c(C)c1)c1ccc(C(=O)NCCC(=O)O)cc1
b = Cn1ncc(-c2ccc(C(=O)N(c3ncccc3Cl)[C@@H]3CCCNC3)cc2)c1C(=O)O
c = COc1ccc(-c2cc3c(S(=O)(=O)O)c[nH]c3cc2Cl)cc1
Q) Put the items in sequence by Ct, from largest down. I'd appreciate it if you listed the labels in the requested order.
A) a, b, c
(a: 2400 ng/mL, b: 630 ng/mL, c: 380 ng/mL)

P = Cc1ccc(NC(=O)N2CCN(Cc3sc4ccccc4c3C)CC2)nc1
Q = COc1ccc2ncc(F)c([C@@H](O)CC[C@@H]3CCN(CCSc4cccs4)C[C@@H]3C(=O)O)c2c1
R = CN(C)C(=O)c1cc(CC(=O)O)ccc1NC(=O)c1ccccc1-c1ccc(C(F)(F)F)cc1
Q) Place the items in sequence of falling Ct. Ranked list of labels, please, in the requested order.
A) R, P, Q
(R: 4200 ng/mL, P: 630 ng/mL, Q: 350 ng/mL)

1 = COc1cc2nc(N3CCN(C(=O)c4ccco4)CC3)nc(N)c2cc1OC
2 = CC(C)(CC1Cc2ccccc2C1)NC[C@@H](O)COc1cc(C2CC3CC2C2C(C(=O)O)C32)ccc1C#N (stereo not given in full)
Q) Problem: Given the entries 1 and 2 , determine which has the lower reported Ct. Select an item and report its label.
A) 2
(2: 400 ng/mL, 1: 640 ng/mL)

* * *

Assay: Fraction unbound in Wistar Han rat heart at 2 uM incubated for 6 hrs by equilibrium dialysis method
measured parameter: fraction unbound at 6 h, 2 µM

a = COc1ccc2ncc(F)c([C@@H](O)CC[C@@H]3CCN(CCSc4cccs4)C[C@@H]3C(=O)O)c2c1
b = CC(C)C[C@H](Nc1ccc(C(=O)NCCC(=O)O)cn1)c1ccc(-c2ccc(C(F)(F)F)cn2)cc1
c = CN(C)C(=O)c1cc(CC(=O)O)ccc1NC(=O)c1ccccc1-c1ccc(C(F)(F)F)cc1
Q) Which order do these items fall in when sorted by fraction unbound at 6 h, 2 µM from largest to smallest? Put the labels in the order asked and list them.
A) c, a, b
(c: 0.311, a: 0.15, b: 0.00934)

I = Cc1c(C(=O)O)cnn1-c1nc(-c2cccc(C(F)(F)F)c2)cs1
II = N#Cc1ccc(N2N=C(N3CCC(C(=O)N4CCC(O)CC4)CC3)C[C@H]2C2CCCC2)cc1Cl
Q) Hey, which is lower on measured fraction unbound at 6 h, 2 µM, I or II ? Refer to your chosen item by its label in the answer.
A) II
(II: 0.00283, I: 0.00954)
